Entry source: the kinase profiling compilation of Christmann-Franck et al. (2016)

Experimental System: MAP3K11 (human) (UniProt Q16584)
Sequence (Q16584 whole entry, looked up): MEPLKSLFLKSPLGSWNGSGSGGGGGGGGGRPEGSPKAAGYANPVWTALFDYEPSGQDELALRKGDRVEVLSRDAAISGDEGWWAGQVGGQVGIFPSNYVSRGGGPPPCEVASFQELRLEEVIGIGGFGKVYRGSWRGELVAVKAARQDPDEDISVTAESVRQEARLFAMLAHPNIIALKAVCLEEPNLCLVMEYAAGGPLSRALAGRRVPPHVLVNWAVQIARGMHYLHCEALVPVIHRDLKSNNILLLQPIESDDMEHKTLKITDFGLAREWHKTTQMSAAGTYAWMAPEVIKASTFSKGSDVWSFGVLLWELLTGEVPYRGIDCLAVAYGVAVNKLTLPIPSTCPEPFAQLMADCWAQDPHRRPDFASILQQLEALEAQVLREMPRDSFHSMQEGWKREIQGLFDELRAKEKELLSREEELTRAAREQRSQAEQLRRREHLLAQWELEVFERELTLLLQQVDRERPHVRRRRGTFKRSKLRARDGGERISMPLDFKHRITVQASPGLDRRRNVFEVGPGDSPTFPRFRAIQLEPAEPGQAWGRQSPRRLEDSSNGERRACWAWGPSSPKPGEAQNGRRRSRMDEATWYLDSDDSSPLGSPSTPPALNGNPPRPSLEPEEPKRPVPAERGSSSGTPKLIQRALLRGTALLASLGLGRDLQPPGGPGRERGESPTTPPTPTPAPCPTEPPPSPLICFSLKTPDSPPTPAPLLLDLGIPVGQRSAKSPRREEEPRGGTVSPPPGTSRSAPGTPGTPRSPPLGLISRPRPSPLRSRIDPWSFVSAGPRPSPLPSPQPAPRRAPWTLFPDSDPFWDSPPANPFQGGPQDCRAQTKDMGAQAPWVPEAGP
Assay Method Text: KINOMEscan competition binding
Condition Label: compound 10.0 µM
Measured Metric: kinase still bound, per cent of control (%)
Answers are plain numbers, in %.

Smiles Repr | Unit Tag | kinase still bound, per cent of control
C=CC(=O)Nc1ccc(CN(C(=O)Nc2c(Cl)c(OC)cc(OC)c2Cl)c2cc(Nc3ccc(N4CCN(C)CC4)cc3)ncn2)cc1 | % | 10
COCC(=O)NC/C=C/c1ccc2ncnc(Nc3ccc(Oc4ccc(C)nc4)c(C)c3)c2c1 | % | 92

Count: 2. Required value per item: kinase still bound, per cent of control.
1. CCN(CC)CCCCNc1ncc2c(n1)N(C)C(=O)N(c1c(Cl)c(OC)cc(OC)c1Cl)C2
2. COc1cc(C(=O)N2CCC(N3CCN(C)CC3)CC2)ccc1Nc1ncc2c(n1)N(C)c1ccccc1C(=O)N2C

1: 100; 2: 100

Count: 2. Required value per item: kinase still bound, per cent of control.
1. COc1cc2ncnc(-n3nc(-c4ccccn4)nc3N)c2cc1OC
2. CNC(=O)c1ccc(Nc2cc(Nc3ccccc3S(=O)(=O)C(C)C)c3cc[nH]c3n2)nc1

1. 63
2. 7.2

----------
Experimental System: UniProt:Q9UQB9
Sequence (Q9UQB9 whole entry, looked up): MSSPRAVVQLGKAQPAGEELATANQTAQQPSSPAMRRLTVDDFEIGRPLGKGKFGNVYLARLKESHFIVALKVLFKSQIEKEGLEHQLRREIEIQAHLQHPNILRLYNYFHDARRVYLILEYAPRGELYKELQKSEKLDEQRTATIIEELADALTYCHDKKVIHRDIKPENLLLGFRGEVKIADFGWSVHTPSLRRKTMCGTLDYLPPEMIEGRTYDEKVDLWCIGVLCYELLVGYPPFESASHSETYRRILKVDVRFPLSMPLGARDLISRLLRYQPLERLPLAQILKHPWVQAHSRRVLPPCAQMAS
Assay Method Text: KINOMEscan competition binding
Condition Label: compound 10.0 µM
Give measured kinase still bound, per cent of control for each item. Keep answers brief.
Answers are plain numbers, in %.

Below, each entry is followed by its recorded kinase still bound, per cent of control result.
Smiles Repr | Value Measured
CCN1CCN(C(=O)Cc2ccc(Nc3ncc(F)c(Nc4ccc(C(=O)Nc5ccccc5Cl)cc4)n3)cc2)CC1 | 1.2
COc1cc2ncnc(-n3nc(-c4ccccn4)nc3N)c2cc1OC | 6.2
CCN(CC)CCCCNc1ncc2c(n1)N(C)C(=O)N(c1c(Cl)c(OC)cc(OC)c1Cl)C2 | 100

Count: 5. Required value per item: kinase still bound, per cent of control.
1. Cc1n[nH]c2ccc(-c3cncc(OC[C@@H](N)Cc4c[nH]c5ccccc45)c3)cc12
2. C=CC(=O)Nc1cc(-n2c(=O)ccc3cnc4ccc(-c5cn[nH]c5)cc4c32)ccc1C
3. NC(=O)Nc1cc(-c2cccc(F)c2)sc1C(=O)N[C@@H]1CCCNC1
4. CCN(CC)CCCCNc1ncc2cc(-c3cc(OC)cc(OC)c3)c(NC(=O)NC(C)(C)C)nc2n1
5. COCC(=O)NC/C=C/c1ccc2ncnc(Nc3ccc(Oc4ccc(C)nc4)c(C)c3)c2c1

1: 34; 2: 100; 3: 0.7; 4: 100; 5: 67

Count: 5. Required value per item: kinase still bound, per cent of control.
1. C=CC(=O)Nc1ccc(CN(C(=O)Nc2c(Cl)c(OC)cc(OC)c2Cl)c2cc(Nc3ccc(N4CCN(C)CC4)cc3)ncn2)cc1
2. O=c1cc(N2CCOCC2)oc2c(-c3cccc4c3sc3ccccc34)cccc12
3. CNC(=O)c1cc(Oc2ccc(NC(=O)Nc3ccc(Cl)c(C(F)(F)F)c3)cc2)ccn1
4. COc1ccc(N(C(=O)Oc2c(C)cccc2C)c2ccnc(Nc3ccc(N4CCN(C)CC4)cc3)n2)c(OC)c1
5. COc1cc(N2CCN(C)CC2)ccc1Nc1ncc2c(n1)N(C)c1ccccc1C(=O)N2C

[100, 100, 100, 9.9, 100]

----------
Experimental System: CDC2L2 (human) (UniProt Q9UQ88)
Sequence (Q9UQ88 whole entry, looked up): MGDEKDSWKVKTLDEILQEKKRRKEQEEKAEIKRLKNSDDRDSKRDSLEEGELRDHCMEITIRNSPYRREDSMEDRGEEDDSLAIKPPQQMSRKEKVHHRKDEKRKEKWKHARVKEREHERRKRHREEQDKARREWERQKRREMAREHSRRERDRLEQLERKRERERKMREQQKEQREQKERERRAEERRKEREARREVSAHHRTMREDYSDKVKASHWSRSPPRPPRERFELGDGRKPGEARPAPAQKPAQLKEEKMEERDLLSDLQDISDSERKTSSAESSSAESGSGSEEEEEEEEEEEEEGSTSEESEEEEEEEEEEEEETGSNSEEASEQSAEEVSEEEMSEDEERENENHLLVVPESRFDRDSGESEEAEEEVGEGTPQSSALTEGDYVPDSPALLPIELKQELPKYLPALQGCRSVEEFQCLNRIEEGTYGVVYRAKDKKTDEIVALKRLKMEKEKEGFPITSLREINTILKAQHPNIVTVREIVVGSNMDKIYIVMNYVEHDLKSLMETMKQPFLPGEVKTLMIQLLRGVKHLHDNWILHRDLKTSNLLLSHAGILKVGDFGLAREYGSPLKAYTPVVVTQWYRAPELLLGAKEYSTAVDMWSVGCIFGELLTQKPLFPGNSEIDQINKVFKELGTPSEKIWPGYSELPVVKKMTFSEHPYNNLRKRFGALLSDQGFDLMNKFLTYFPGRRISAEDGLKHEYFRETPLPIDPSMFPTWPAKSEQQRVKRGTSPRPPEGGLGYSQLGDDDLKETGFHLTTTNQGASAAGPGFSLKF
Assay Method Text: KINOMEscan competition binding
Condition Label: compound 10.0 µM
Measured Metric: kinase still bound, per cent of control (%)
Give bare numbers, in %.

Smiles Repr | Measured Metric | Value Measured
COc1cc2ncnc(-n3nc(-c4ccccn4)nc3N)c2cc1OC | kinase still bound, per cent of control | 100
COc1cc(N2CCN(C)CC2)ccc1Nc1ncc2c(n1)N(C)c1ccccc1C(=O)N2C | kinase still bound, per cent of control | 100
CCN1CCN(C(=O)Cc2ccc(Nc3ncc(F)c(Nc4ccc(C(=O)Nc5ccccc5Cl)cc4)n3)cc2)CC1 | kinase still bound, per cent of control | 95
CS(=O)(=O)N1CCN(Cc2cc3nc(-c4cccc5[nH]ncc45)nc(N4CCOCC4)c3s2)CC1 | kinase still bound, per cent of control | 100
O=C1NC(=O)/C(=C/c2ccc3nccc(-c4ccncc4)c3c2)S1 | kinase still bound, per cent of control | 85
COc1ccc(N(C(=O)Oc2c(C)cccc2C)c2ccnc(Nc3ccc(N4CCN(C)CC4)cc3)n2)c(OC)c1 | kinase still bound, per cent of control | 42
Cc1n[nH]c2ccc(-c3cncc(OC[C@@H](N)Cc4c[nH]c5ccccc45)c3)cc12 | kinase still bound, per cent of control | 100
N#CCNC(=O)c1ccc(-c2ccnc(Nc3ccc(N4CCOCC4)cc3)n2)cc1 | kinase still bound, per cent of control | 58

For the next question, use this molecule.
Can you look up kinase still bound, per cent of control on CDC2L2 (human) (UniProt Q9UQ88) for "CNC(=O)c1ccc(Nc2cc(Nc3ccccc3S(=O)(=O)C(C)C)c3cc[nH]c3n2)nc1" ? 100
